- Target under test: CDK4 CCND1 (human) (UniProt P11802+P24385)
- Sequence (P11802 whole entry, looked up): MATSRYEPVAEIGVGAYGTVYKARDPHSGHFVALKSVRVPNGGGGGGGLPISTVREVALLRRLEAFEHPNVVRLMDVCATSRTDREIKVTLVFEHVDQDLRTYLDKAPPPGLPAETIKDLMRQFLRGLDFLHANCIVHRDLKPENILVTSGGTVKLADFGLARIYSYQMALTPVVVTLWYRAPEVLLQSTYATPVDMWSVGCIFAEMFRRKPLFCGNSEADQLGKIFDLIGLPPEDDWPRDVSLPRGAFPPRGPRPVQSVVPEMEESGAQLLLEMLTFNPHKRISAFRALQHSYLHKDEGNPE
- Sequence (P24385 whole entry, looked up): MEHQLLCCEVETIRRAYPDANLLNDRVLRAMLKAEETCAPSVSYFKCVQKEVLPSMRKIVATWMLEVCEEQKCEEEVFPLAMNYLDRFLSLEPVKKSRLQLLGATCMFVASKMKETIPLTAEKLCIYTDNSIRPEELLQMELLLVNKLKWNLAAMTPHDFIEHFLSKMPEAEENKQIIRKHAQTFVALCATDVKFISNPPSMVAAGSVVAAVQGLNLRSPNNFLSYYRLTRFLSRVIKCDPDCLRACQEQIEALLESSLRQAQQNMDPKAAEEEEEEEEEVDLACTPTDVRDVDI
- Protocol details: KINOMEscan competition binding
- Assay conditions: compound 1.0 µM
Would you kindly list kinase still bound, per cent of control for each of these compounds?
Numbers only, in %.

CN(C)C/C=C/C(=O)Nc1cccc(C(=O)Nc2ccc(Nc3nccc(/C(C#N)=C4\Nc5ccccc5S4)n3)cc2)c1
100
Cc1cc(NC(=O)c2cccc(NC(=O)/C=C/CN(C)C)c2)ccc1Nc1nccc(-c2cccnc2)n1
92
CN(C)C/C=C/C(=O)Nc1cccc(C(=O)Nc2ccc(Nc3nccc(-c4c(-c5ccccc5)nn5ccccc45)n3)cc2)c1
79

# ---- query compound ----
What the record says about CN(C)C/C=C/C(=O)Nc1cccc(C(=O)Nc2ccc(Nc3nccc(-c4cccnc4)n3)cc2)c1 : kinase still bound, per cent of control is 61

====

Task for the reader: assign each of the following compounds its reported kinase still bound, per cent of control.
- Target under test: AURKC (human)
- Protocol details: KINOMEscan competition binding
- Assay conditions: compound 1.0 µM
In your response, the unit should come after the numeric value.

Some solved cases for reference:
CN(C)C/C=C/C(=O)Nc1cccc(C(=O)Nc2ccc(Nc3nccc(-c4cccnc4)n3)cc2)c1
33%
Cc1cc(NC(=O)c2cccc(NC(=O)/C=C/CN(C)C)c2)ccc1Nc1nccc(-c2cccnc2)n1
95%
CN(C)C/C=C/C(=O)Nc1cccc(C(=O)Nc2ccc(Nc3nccc(-c4c(-c5ccccc5)nn5ccccc45)n3)cc2)c1
84%

Kindly review the next compound as well.
Lookup result for CN(C)C/C=C/C(=O)Nc1cccc(C(=O)Nc2ccc(Nc3nccc(/C(C#N)=C4\Nc5ccccc5S4)n3)cc2)c1 ; measured kinase still bound, per cent of control: 76%

====

Would you mind telling me the reported kinase still bound, per cent of control of each entry?
- Target under test: ADCK4 (human)
- Protocol details: KINOMEscan competition binding
- Assay conditions: compound 1.0 µM
Numbers only, in %.

See these solved cases before continuing.
CN(C)C/C=C/C(=O)Nc1cccc(C(=O)Nc2ccc(Nc3nccc(-c4cccnc4)n3)cc2)c1
69
Cc1cc(NC(=O)c2cccc(NC(=O)/C=C/CN(C)C)c2)ccc1Nc1nccc(-c2cccnc2)n1
93
CN(C)C/C=C/C(=O)Nc1cccc(C(=O)Nc2ccc(Nc3nccc(/C(C#N)=C4\Nc5ccccc5S4)n3)cc2)c1
48

Now let's try a different one.
The value of kinase still bound, per cent of control measured for the compound CN(C)C/C=C/C(=O)Nc1cccc(C(=O)Nc2ccc(Nc3nccc(-c4c(-c5ccccc5)nn5ccccc45)n3)cc2)c1 turned out to be 0

====

Give measured kinase still bound, per cent of control for each item. Keep answers brief.
- Target under test: MAP2K6 (human)
- Protocol details: KINOMEscan competition binding
- Assay conditions: compound 1.0 µM
Give bare numbers, in %.

Required: kinase still bound, per cent of control, one value per compound below.
1. Cc1cc(NC(=O)c2cccc(NC(=O)/C=C/CN(C)C)c2)ccc1Nc1nccc(-c2cccnc2)n1
2. CN(C)C/C=C/C(=O)Nc1cccc(C(=O)Nc2ccc(Nc3nccc(-c4cccnc4)n3)cc2)c1
3. CN(C)C/C=C/C(=O)Nc1cccc(C(=O)Nc2ccc(Nc3nccc(-c4c(-c5ccccc5)nn5ccccc45)n3)cc2)c1
4. CN(C)C/C=C/C(=O)Nc1cccc(C(=O)Nc2ccc(Nc3nccc(/C(C#N)=C4\Nc5ccccc5S4)n3)cc2)c1

[95, 53, 56, 100]
